Hello, the source for this data is BindingDB's records for patent US10981904, in case you need it.

Listed here: items and their measured IC50.
target: Glutaminase kidney isoform, mitochondrial [63-669] (Homo sapiens, UniProt O94925); assay: GLS Enzyme Potency Assay
Sequence (O94925 63-669): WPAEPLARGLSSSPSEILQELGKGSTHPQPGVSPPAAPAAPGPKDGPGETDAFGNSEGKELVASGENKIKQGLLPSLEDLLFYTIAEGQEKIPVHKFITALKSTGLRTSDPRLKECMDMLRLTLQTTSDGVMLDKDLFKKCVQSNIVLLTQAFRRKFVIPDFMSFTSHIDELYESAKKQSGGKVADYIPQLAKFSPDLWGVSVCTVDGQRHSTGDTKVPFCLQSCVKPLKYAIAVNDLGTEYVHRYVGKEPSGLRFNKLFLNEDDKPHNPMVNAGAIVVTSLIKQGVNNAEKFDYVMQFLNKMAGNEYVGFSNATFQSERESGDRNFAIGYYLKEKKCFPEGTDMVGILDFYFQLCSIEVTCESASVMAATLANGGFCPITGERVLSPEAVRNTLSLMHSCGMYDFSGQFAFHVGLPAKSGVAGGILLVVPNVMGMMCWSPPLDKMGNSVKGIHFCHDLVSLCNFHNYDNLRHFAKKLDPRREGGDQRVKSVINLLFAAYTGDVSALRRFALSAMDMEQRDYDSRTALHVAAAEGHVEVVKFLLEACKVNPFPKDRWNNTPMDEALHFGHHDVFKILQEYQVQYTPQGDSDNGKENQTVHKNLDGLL
Expressed in nM, but write only the number.

{"columns": ["molecule", "IC50, nM"],
 "data": [
  ["COC1CN(c2cc([C@H](OC)C(=O)Nc3nnc(N[C@@H]4CCN(c5cccnn5)C4)s3)ccc2F)C1 [US10981904, Example 7(b)]", 192]
]}

For the next question, use this molecule.
### Prompt Suppose we examine the molecule CO[C@H](C(=O)Nc1nnc(N[C@@H]2CCN(c3cccnn3)C2)s1)c1ccccc1C1COC1 [US10981904, Example 25] ; what IC50 value has been reported?
### Response 1840
